tested on: cervical epithelioid carcinoma (HeLa); assay: MTT cytotoxicity assay, HeLa; assay type: cell-based, human; conditions: 72 h
Measured Parameter: IC50 (µM)
Give bare numbers, in µM.

// worked examples, IC50 included
{"Compound": "CCCCn1cc[n+](CCCC)[c]1[Pt-2]12[c]3ccccc3-c3cccc([n+]31)-c1cccc[n+]12.F[P-](F)(F)(F)(F)F (stereo not drawn)", "Tested On": "cervical epithelioid carcinoma (HeLa)", "Unit": "µM", "IC50": 0.05}
{"Compound": "N.N.[Cl][Pt][Cl] [cisplatin, reference compound]", "Tested On": "cervical epithelioid carcinoma (HeLa)", "Unit": "µM", "IC50": 14.9}
{"Compound": "CCCn1cc[n+](CCC)[c]1[Pt-2]12[c]3ccccc3-c3cccc([n+]31)-c1cccc[n+]12.F[P-](F)(F)(F)(F)F (stereo not drawn)", "Tested On": "cervical epithelioid carcinoma (HeLa)", "Unit": "µM", "IC50": 0.05}

For every listed record, write down its IC50.
1. Cc1cc(C)c(-[n+]2ccn(CC(=O)c3ccccc3)[c]2[Au-]23[c]4ccccc4-c4cccc([n+]42)-c2cccc[c]23)c(C)c1.O=S(=O)([O-])C(F)(F)F
2. Cc1cc(C)c(-[n+]2ccn(CCCO)[c]2[Pt-2]23[c]4ccccc4-c4cccc([n+]42)-c2cccc[n+]23)c(C)c1.F[P-](F)(F)(F)(F)F (stereo not drawn)
3. COc1ccc(-c2cc3[n+]4c(c2)-c2cc5ccccc5c[c]2[Au-]4([c]2n(C)cc[n+]2C)[c]2cc4ccccc4cc2-3)cc1.O=S(=O)([O-])C(F)(F)F

Result:
3.5
0.48
0.5

====

test system: lung fibroblast cells (CCD-19Lu); assay: MTT cytotoxicity to non-cancerous cells, CCD-19Lu; assay type: cell-based, human; settings: 72 h, non-cancerous lung fibroblast cells CCD-19Lu
Task for the reader: assign each of the following molecules its reported pIC50.
Numbers only, as −log10 of the molar value.

{"Molecule": "CCCC[n+]1ccn(CCCn2cc[n+](CCCC)[c]2[Pt-2]23[c]4ccccc4-c4cccc([n+]42)-c2cccc[n+]23)[c]1[Pt-2]12[c]3ccccc3-c3cccc([n+]31)-c1cccc[n+]12.F[P-](F)(F)(F)(F)F.F[P-](F)(F)(F)(F)F (stereo not shown)", "pIC50": 4.57}
{"Molecule": "CCCCn1cc[n+](CCCC)[c]1[Pt-2]12[c]3ccccc3-c3cccc([n+]31)-c1cccc[n+]12.F[P-](F)(F)(F)(F)F (stereo not shown)", "pIC50": 5.00}
{"Molecule": "CCCCn1cc[n+](CCO)[c]1[Pt-2]12[c]3ccccc3-c3cccc([n+]31)-c1cc3ccccc3c[n+]12.F[P-](F)(F)(F)(F)F (stereo not shown)", "pIC50": 4.96}
{"Molecule": "CCCn1cc[n+](CCC)[c]1[Pt-2]12[c]3ccccc3-c3cccc([n+]31)-c1cc3ccccc3c[n+]12.F[P-](F)(F)(F)(F)F (stereo not shown)", "pIC50": 4.92}
{"Molecule": "Cc1cc(C)c(-[n+]2ccn(CC(=O)c3ccccc3)[c]2[Au-]23[c]4ccccc4-c4cccc([n+]42)-c2cccc[c]23)c(C)c1.O=S(=O)([O-])C(F)(F)F", "pIC50": 4.96}

Below is a list of molecules. For each, state its recorded pIC50.
1. Cc1cc(C)c(-[n+]2ccn(CCCO)[c]2[Pt-2]23[c]4ccccc4-c4cccc([n+]42)-c2cccc[n+]23)c(C)c1.F[P-](F)(F)(F)(F)F (stereo not shown)
2. CC(C)c1cc(C(C)C)c(-n2cc[n+](-c3c(C(C)C)cc(C(C)C)cc3C(C)C)[c]2[Au-]23[c]4ccccc4-c4cccc([n+]42)-c2cccc[c]23)c(C(C)C)c1.O=S(=O)([O-])C(F)(F)F
3. CCCC[n+]1ccn(Cn2cc[n+](CCCC)[c]2[Pt-2]23[c]4ccccc4-c4cccc([n+]42)-c2cccc[n+]23)[c]1[Pt-2]12[c]3ccccc3-c3cccc([n+]31)-c1cccc[n+]12.F[P-](F)(F)(F)(F)F.F[P-](F)(F)(F)(F)F (stereo not shown)
4. Cn1cc[n+](C)[c]1[Au-]12[c]3ccccc3-c3cccc([n+]31)-c1cccc[c]12.O=S(=O)([O-])C(F)(F)F
5. CCCCn1cc[n+](C[n+]2ccn(CCCC)[c]2[Au-]23[c]4cc5ccccc5cc4-c4cc(-c5ccc(OC)cc5)cc([n+]42)-c2cc4ccccc4c[c]23)[c]1[Au-]12[c]3cc4ccccc4cc3-c3cc(-c4ccc(OC)cc4)cc([n+]31)-c1cc3ccccc3c[c]12.O=S(=O)([O-])C(F)(F)F.O=S(=O)([O-])C(F)(F)F

Result:
1: 5.12; 2: 4.96; 3: 4.40; 4: 4.60; 5: 5.00

====

test system: cervical epithelioid carcinoma (HeLa); assay: MTT cytotoxicity assay, HeLa; assay type: cell-based, human; conditions: 72 h
Measured Parameter: pIC50
Answers are plain numbers, as −log10 of the molar value.

{"Compound": "CCCCn1cc[n+](C[n+]2ccn(CCCC)[c]2[Au-]23[c]4ccccc4-c4cccc([n+]42)-c2cccc[c]23)[c]1[Au-]12[c]3ccccc3-c3cccc([n+]31)-c1cccc[c]12.O=S(=O)([O-])C(F)(F)F.O=S(=O)([O-])C(F)(F)F [Complex 2]", "Tested On": "cervical epithelioid carcinoma (HeLa)", "pIC50": 5.11}
{"Compound": "CCn1cc[n+](CC)[c]1[Pt-2]12[c]3ccccc3-c3cccc([n+]31)-c1cccc[n+]12.F[P-](F)(F)(F)(F)F (centres unmarked) [Complex 12]", "Tested On": "cervical epithelioid carcinoma (HeLa)", "pIC50": 6.32}
{"Compound": "Cn1cc[n+](C)[c]1[Pt-2]12[c]3ccccc3-c3cccc([n+]31)-c1cccc[n+]12.F[P-](F)(F)(F)(F)F (centres unmarked) [Complex 11]", "Tested On": "cervical epithelioid carcinoma (HeLa)", "pIC50": 6.48}
{"Compound": "Cn1cc[n+](C)[c]1[Au-]12[c]3ccccc3-c3cccc([n+]31)-c1cccc[c]12.O=S(=O)([O-])C(F)(F)F [Complex 1]", "Tested On": "cervical epithelioid carcinoma (HeLa)", "pIC50": 6.82}

// next item, pIC50 requested
Query: Fill blank: measured pIC50 of the compound CC(C)c1cc(C(C)C)c(-n2cc[n+](-c3c(C(C)C)cc(C(C)C)cc3C(C)C)[c]2[Au-]23[c]4ccccc4-c4cccc([n+]42)-c2cccc[c]23)c(C(C)C)c1.O=S(=O)([O-])C(F)(F)F [Complex 4] is ____.
Result: 5.57

====

Exercise: for every item that follows, state its recorded pIC50.
test system: nasopharyngeal carcinoma (SUNE1); experiment: MTT cytotoxicity assay, SUNE1; format: cell-based, human; conditions: 72 h
Numbers only, as −log10 of the molar value.

{"Compound": "CC(C)c1cc(C(C)C)c(-n2cc[n+](-c3c(C(C)C)cc(C(C)C)cc3C(C)C)[c]2[Au-]23[c]4ccccc4-c4cccc([n+]42)-c2cccc[c]23)c(C(C)C)c1.O=S(=O)([O-])C(F)(F)F [Complex 4]", "Tested On": "nasopharyngeal carcinoma (SUNE1)", "Measurement": 5.26}
{"Compound": "Cc1cc(C)c(-[n+]2ccn(CC(=O)c3ccccc3)[c]2[Au-]23[c]4ccccc4-c4cccc([n+]42)-c2cccc[c]23)c(C)c1.O=S(=O)([O-])C(F)(F)F [Complex 5]", "Tested On": "nasopharyngeal carcinoma (SUNE1)", "Measurement": 5.47}
{"Compound": "COc1ccc(-c2cc3[n+]4c(c2)-c2cc5ccccc5c[c]2[Au-]4([c]2n(C)cc[n+]2C)[c]2cc4ccccc4cc2-3)cc1.O=S(=O)([O-])C(F)(F)F [Complex 8]", "Tested On": "nasopharyngeal carcinoma (SUNE1)", "Measurement": 6.59}
{"Compound": "CCCn1cc[n+](CCC)[c]1[Pt-2]12[c]3ccccc3-c3cccc([n+]31)-c1cccc[n+]12.F[P-](F)(F)(F)(F)F (centres unmarked) [Complex 13]", "Tested On": "nasopharyngeal carcinoma (SUNE1)", "Measurement": 6.80}

Here is the next item to consider.
Query: Record request: pIC50 value, item CCCn1cc[n+](CCC)[c]1[Pt-2]12[c]3ccccc3-c3cccc([n+]31)-c1cc3ccccc3c[n+]12.F[P-](F)(F)(F)(F)F (centres unmarked) [Complex 24]
Result: 6.15

Where do these numbers come from? They come from patent US9822139B2.
